Catalogue of compounds with associated Papp at 5 h, 200 µM
# experiment_description: Parallel artificial membrane permeability assay (PAMPA)
# Assay type: in vitro ADME
# applied_conditions: PBS, room temperature
# Method: Bioavailable drugs must permeate the cellular membranes of the lining of the digestive tract. To estimate the penetrability of exemplary compounds, the in vitro parallel artificial membrane permeability assay (PAMPA) was utilized. Test compounds must have a standard curve in the final read plate to determine partitioned concentration of each drug. […] Permeability and membrane retention were then calculated based on the following formulas: […]

Illustrative cases are given below, each with its answer.
- compound: "C=CCCN1CC2N(C(=O)c3ccc(C(F)(F)F)cc3)CCC(=O)N2C(C)C1=O (centres unmarked)"
  result: "< 20 nm/s"
- compound: "CCC(C)CN1CC2N(C(=O)c3ccc(OC(F)F)cc3)CCC(=O)N2[C@@H](C)C1=O (some centres unmarked)"
  result: "< 20 nm/s"
- compound: "CC1C(=O)N(CCC2CCCC2)CC2N(C(=O)c3ccc(C(F)(F)F)cc3)CCC(=O)N12 (centres unmarked)"
  result: "< 20 nm/s"
- compound: "CCC(C)N1CC2N(Cc3ccc(O)cc3)CCC(=O)N2CC1=O (centres unmarked)"
  result: "> 20 nm/s"
- compound: "CCC(C)CN1CC2N(C(=O)c3ccc(O)nc3)CCC(=O)N2[C@@H](C)C1=O (some centres unmarked)"
  result: "> 100 nm/s"

Asked: Name the recorded Papp at 5 h, 200 µM of the compound listed here: CCC(C)CN1CC2N(Cc3ccc(OC(F)F)cc3)CCC(=O)N2C(CC(=O)O)C1=O (centres unmarked)
Given back: > 20 nm/s

Asked: Consider the compound CC1C(=O)N(CC2CCC2)CC2N(C(=O)c3ccc(OC(F)F)cc3)CCC(=O)N12 (centres unmarked) and give its recorded Papp at 5 h, 200 µM.
Given back: > 20 nm/s

Asked: Supply recorded Papp at 5 h, 200 µM for CC1C(=O)N(CCC2CCC2)CC2N(C(=O)c3ccc(C(F)(F)F)cc3)CCC(=O)N12 (centres unmarked) here.
Given back: < 20 nm/s

Measured values drawn from patent US20240025903A1 for this set.
